test system: cynomolgus monkey hepatocytes; assay: Metabolic stability in cynomolgus monkey hepatocytes; format: in vitro ADME; details: 0.1 uM
Provide the reported log10(t1/2) of each item.
Short version: log10 scale, t1/2, h.

Problem: Could you share what log10(t1/2) was measured for COCCOCCOCCOCCOCCOCCOC(=O)NC(C(=O)NC(Cc1ccccc1)C(O)CN(Cc1ccc(-c2ccccn2)cc1)NC(=O)C(NC(=O)OC)C(C)(C)C)C(C)(C)C (centres unmarked) , tested on cynomolgus monkey hepatocytes?
Result: 1.97

Problem: Under cynomolgus monkey hepatocytes: log10(t1/2) value of COCCOCCOCCOc1ccc(C[C@H](NC(=O)O[C@H]2CO[C@H]3OCC[C@H]32)C(O)CN(CC(C)C)S(=O)(=O)c2ccc(N)cc2)cc1 (some centres unmarked) ?
Result: 0.43

Problem: Hi! What's the reported log10(t1/2) for COCCOCCOCCOCCOCCOC(=O)NC(C(=O)NC(Cc1ccccc1)C(O)CN(Cc1ccc(-c2ccccn2)cc1)NC(=O)C(NC(=O)OC)C(C)(C)C)C(C)(C)C (centres unmarked) on cynomolgus monkey hepatocytes?
Result: 0.22

Problem: Which log10(t1/2) is reported with cynomolgus monkey hepatocytes for this entry: COCCOCCOCCOCCOCCNc1ccc(S(=O)(=O)N(CC(C)C)CC(O)[C@H](Cc2ccccc2)NC(=O)O[C@H]2CO[C@H]3OCC[C@H]32)cc1 (some centres unmarked) ?
Result: -0.06

Problem: Please state recorded log10(t1/2) (tested on cynomolgus monkey hepatocytes) of COCCOC(=O)NC(C(=O)NC(Cc1ccccc1)C(O)CN(Cc1ccc(-c2ccccn2)cc1)NC(=O)C(NC(=O)OC)C(C)(C)C)C(C)(C)C (centres unmarked)
Result: -0.48
